Origin of measurements: ChEMBL document CHEMBL1137725

system: Kidney; assay: Biodistribution in NMRI mouse kidney at 37 MBq/mL, iv after 60 mins postinjection by gamma counting; type: ADME, organism-based; details: in vivo, 1 h
property: Drug uptake (%ID)
One number for each entry, in %ID.

Some compounds with known Drug uptake results, for comparison:
# compound, property, measurement unit, numeric readout
data = [
    ("[11CH3]Nc1ccc(-c2nc3cc(O)ccc3s2)cc1", "Drug uptake", "%ID", 0.7),
    ("CNc1ccc(-c2nc3ccc(O)cc3s2)cc1 [PITTSBURGH COMPOUND B UNLABELLED]", "Drug uptake", "%ID", 4.8),
    ("[11CH3]Nc1ccc(-c2nc3cccc(O)c3s2)cc1", "Drug uptake", "%ID", 2.5),
]

Next compound, Drug uptake to be filled in.
Q: Fill in Drug uptake for record "[11CH3]Nc1ccc(-c2nc3c(O)cccc3s2)cc1"
Ans: 0.6

====

test: Partition coefficient, log P in Octanol and 0.025 M phosphate buffer at pH7.4 by gamma counter; type: physicochemical; settings: octanol/0.025 M phosphate buffer, pH 7.4
property: logD
Answers are plain numbers.

# chemical smiles, numeric readout
records = [
    ("[11CH3]Nc1ccc(-c2nc3c(O)cccc3s2)cc1", 3.18),
    ("[11CH3]Nc1ccc(-c2nc3cccc(O)c3s2)cc1", 2.45),
]

Q: Fill in logD for record "[11CH3]Nc1ccc(-c2nc3cc(O)ccc3s2)cc1"
Ans: 2.48

====

assay: Biodistribution in NMRI mouse urine at 37 MBq/mL, iv after 2 mins postinjection by gamma counting; assay type: ADME, organism-based; details: in vivo
property: Drug uptake (%ID)
Answers are plain numbers, in %ID.

Some molecules with known Drug uptake results, for comparison:
# molecule, Drug uptake / %ID
rows = [
    ("[11CH3]Nc1ccc(-c2nc3cccc(O)c3s2)cc1", 0.58),
    ("[11CH3]Nc1ccc(-c2nc3c(O)cccc3s2)cc1", 0.2),
    ("[11CH3]Nc1ccc(-c2nc3cc(O)ccc3s2)cc1", 0.35),
]

Q: Fill in Drug uptake for record CNc1ccc(-c2nc3ccc(O)cc3s2)cc1 [PITTSBURGH COMPOUND B UNLABELLED]
Ans: 0.2

====

Assign Drug uptake to each entry below.
test system: Kidney; assay: Biodistribution in NMRI mouse kidney at 37 MBq/mL, iv after 60 mins postinjection assessed per gram of tissue by gamma counting; assay type: ADME, organism-based; details: in vivo, 1 h
Numbers only, in % ID/g.

Some molecules with known Drug uptake results, for comparison:
# molecule, property, numeric readout
measured = [
    ("CNc1ccc(-c2nc3ccc(O)cc3s2)cc1 [PITTSBURGH COMPOUND B UNLABELLED]", "Drug uptake", 9.1),
    ("[11CH3]Nc1ccc(-c2nc3cccc(O)c3s2)cc1", "Drug uptake", 4.8),
    ("[11CH3]Nc1ccc(-c2nc3cc(O)ccc3s2)cc1", "Drug uptake", 1.2),
]

Next molecule, Drug uptake to be filled in.
Q: Fill in Drug uptake for record "[11CH3]Nc1ccc(-c2nc3c(O)cccc3s2)cc1"
Ans: 1.2

====

Assign Drug uptake to each entry below.
test system: Blood; test: Biodistribution in NMRI mouse blood at 37 MBq/mL, iv after 60 mins postinjection assessed per gram of tissue by gamma counting; format: ADME, organism-based; conditions: in vivo, 1 h
Numbers only, in % ID/g.

# compound, Drug uptake, % ID/g
rows = [
    ("[11CH3]Nc1ccc(-c2nc3cc(O)ccc3s2)cc1", 0.21),
    ("[11CH3]Nc1ccc(-c2nc3cccc(O)c3s2)cc1", 0.57),
    ("[11CH3]Nc1ccc(-c2nc3c(O)cccc3s2)cc1", 1),
]

Q: Fill in Drug uptake for record CNc1ccc(-c2nc3ccc(O)cc3s2)cc1 [PITTSBURGH COMPOUND B UNLABELLED]
Ans: 1.1
